Entry source: PubChem BioAssay

# experimental_system: Neurogenic locus notch homolog protein 3 (Homo sapiens)
# measurement_notes: small molecules binding NOTCH3 protein – biochemical, 635/667 nm fluorescence, primary screen (AID 1096)
# test_parameters: small-molecule microarray, 635 nm fluorescence, higher = more signal
measured_metric: composite z-score

Take a look at these entries with their results.
compound	value_measured
CC(C)C(=C=CC[C@H](O)c1ccccc1OCCO)C[C@H](O)COCc1ccccc1	-0.287
CN1C(=O)C2C(C3CC3)C=C3CN(Cc4cccc(Cl)c4)[C@@H]([C@@H](O)Cc4ccccc4)C3C2C1=O (stereo partly drawn)	1.15
CCOC(=O)C[C@H]1[C@H](OC(=O)Cc2ccc3c(c2)OCO3)[C@@H](NC(=O)c2ccc3ccccc3n2)c2cc(OCCCO)ccc2N1C(=O)Cc1ccc(OC)cc1	0.55

Hi! Can you tell me composite z-score for each of these compounds?
1. COC(=O)[C@@]1(Cc2ccc(F)cc2)[C@H]2c3cc(C(=O)N4CCCC4)n(Cc4ccccn4)c3C[C@H]2CN1C(=O)c1ccccc1
2. O=C(O)[C@H](Cc1ccccc1)n1cc(C2(O)CCCCC2)nn1
3. CCCCC(O)C1C=CC2C(=O)N(c3ccccc3)C(=O)C2N1Nc1ccccc1 (stereo not drawn)
4. O=C(NC1CC1)[C@@H]1c2ccccc2C(=O)N(Cc2ccc(OC(F)(F)F)cc2)[C@H]1c1ccc(CO)cc1
5. COc1ccc(CCNC(=O)[C@@H]2c3ccccc3C(=O)N(Cc3ccccc3OC)[C@H]2c2ccc(CO)cc2)cc1

[A]
0.841
0.541
0.452
0.377
0.852

* * *

# Tested on: Noggin (protein binding on small-molecule microarray)
# measurement_notes: small molecules binding Noggin protein – biochemical, 635/667 nm fluorescence, primary screen (AID 1095);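 also: score merges 667 nm feature fluorescence with signal to noise over triplicate slides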
# test_parameters: 635 nm fluorescence, higher = more signal
measured_metric: composite z-score
Give bare numbers.

# annotated cases, reported composite z-score shown
compound	value_measured
C=C(COC)C(=O)CC[C@@H](OC(=O)c1ccccc1-c1ccccc1C(=O)O)c1ccc(OCCO)cc1	1.26
O=C1O[C@H](c2ccccc2)[C@H](c2ccccc2)N2[C@H]1[C@@H](C(=O)N1CCN(c3ncccn3)CC1)[C@]1(C(=O)Nc3ccc(C#CCCO)cc31)[C@H]2c1ccc(O)cc1	0.283
[N-]=[N+]=Nc1ccccc1[C@@H]1OC(c2ccc(OCCCO)cc2)=N[C@]1(Cc1ccccc1)C(=O)NCCN1CCOCC1	0.762

// each compound listed below needs its composite z-score
1. CCCNC(=O)[C@@]1(c2ccc([N+](=O)[O-])cc2)CC(=O)N(C(C)C)[C@@H]1c1ccc(CO)cc1
2. C=CCOC(=O)[C@@H]1[C@H]2C(=O)O[C@H](c3ccccc3)[C@H](c3ccccc3)N2[C@H](c2ccc(OCCOC(=O)[C@H]3C[C@H]4C(=O)NCC(=O)N4[C@H]3c3cccc(OCCO)c3)cc2)[C@@]12C(=O)Nc1ccc(I)cc12
3. COCCCNC(=O)[C@@H]1c2ccccc2C(=O)N(Cc2ccc(OC(F)(F)F)cc2)[C@H]1c1ccc(CO)cc1
4. C=C(COC)/C(=C/C[C@@H](OC(C)=O)c1ccccc1OCCO)c1cnc2ccccc2c1

[A]
1: -1.27; 2: 0.963; 3: 0.489; 4: 1.64

Record composite z-score for all entries; do not skip any.
1. CC(C)C(O)C1C=CC2C(=O)NC(=O)C2N1Nc1ccccn1 (stereo not given)
2. COc1ccc(C(O)C2C=CC3C(=O)NC(=O)C3N2Nc2ccc(Cl)cc2Cl)c2ccccc12 (stereo not given)
3. C=C(CCCC)C(=O)CC[C@@H](OC(=O)c1ccccc1-c1ccccc1C(=O)O)c1ccccc1OCCO
4. O=C1C[C@@](C(=O)NC2CC2)(c2ccc([N+](=O)[O-])cc2)[C@@H](c2ccc(CO)cc2)N1C1CCCCC1
5. CCOC(=O)C1=CC[C@@H](c2ccccc2)N(S(=O)(=O)c2ccc(C)cc2)[C@H]1c1ccccc1I
6. CCCN1C(=O)[C@]2(CCC(=O)OC(C)(C)C)N=C(c3ccc(OCCCO)cc3)O[C@@H]2c2ccccc21
7. NC(=O)N1C(=O)C2C(C1=O)C1C=C(CCCO)C2C(c2ccc(CN3CCCC3)cc2)N1Cc1sc2ccccc2c1Cl (stereo not given)

[A]
[-0.0878, -0.494, 1.2, 1.74, 0.22, 1.37, -0.275]

According to the records, this compound O=C1NC(=O)C2C1C=CC(C(O)c1ccc([N+](=O)[O-])cc1)N2Nc1ccccn1 (stereo not given) displays composite z-score of 0.241

* * *

Could you please report measured z-score for the items listed next?
# measurement_notes: changes in parasitized red cell lysis, either direction – P. falciparum Indochina, OD700, 3 h, PSAC antagonist project, primary screen (AID 1156)
# test_parameters: P. falciparum-infected erythrocytes, osmotic lysis, higher = more signal, called active from +8 up or from −8 down
Numbers only.

compound_structure_string	z-score
CCOC(=O)C1=C[C@@H](C(C)(C)C)N(S(=O)(=O)c2ccc(C)cc2)[C@H]1c1ccc(C#N)cc1	-0.217
O=C(O)[C@H](Cc1ccccc1)n1cc(C2(O)CCCCC2)nn1	-0.472
Cc1ccc(S[C@]2(C(=O)NCC(F)(F)F)CC(=O)N(Cc3ccccc3C(F)(F)F)[C@@H]2c2ccc(CO)cc2)cc1	-0.142

With those in mind, consider the next compound.
Sample C=CCN1Cc2ccccc2[C@H]2OC(c3ccc(OCCCO)cc3)=N[C@@]2(CCS(=O)(=O)c2ccccc2)C1=O ; z-score observed: 1.47

* * *

# experimental_system: Homeobox protein Hox-A13 (Mus musculus) (UniProt Q62424)
# Sequence (Q62424 whole entry, looked up): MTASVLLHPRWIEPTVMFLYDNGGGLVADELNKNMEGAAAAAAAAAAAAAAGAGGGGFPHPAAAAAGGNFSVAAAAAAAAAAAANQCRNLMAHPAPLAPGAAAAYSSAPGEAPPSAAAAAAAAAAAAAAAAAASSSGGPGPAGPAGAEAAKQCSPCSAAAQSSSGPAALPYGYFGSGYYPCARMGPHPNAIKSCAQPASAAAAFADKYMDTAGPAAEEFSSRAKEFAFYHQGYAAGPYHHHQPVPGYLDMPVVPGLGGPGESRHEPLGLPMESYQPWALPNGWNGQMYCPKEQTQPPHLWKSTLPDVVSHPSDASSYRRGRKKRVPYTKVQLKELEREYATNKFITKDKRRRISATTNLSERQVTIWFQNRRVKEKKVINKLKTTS
# measurement_notes: disruptors of Hoxa13 oligonucleotide interaction – biochemical, fluorescence polarization, labeled oligonucleotide, primary screen (AID 1185)
# test_parameters: Hoxa13:DNA binding, 15 min, higher = more signal, called active from +8 up or from −8 down
measured_metric: z-score
One number for each entry.

Consider the worked cases shown below.
compound	experimental_system	value_measured
CC(C)NC(=O)[C@@]1(c2ccc([N+](=O)[O-])cc2)CC(=O)N(CC23CC4CC(CC(C4)C2)C3)[C@@H]1c1ccc(CO)cc1	Homeobox protein Hox-A13 (Mus musculus) (UniProt Q62424)	-4.97
CCOC(=O)C[C@H]1[C@H](OC(=O)Cc2ccc3c(c2)OCO3)[C@@H](NC(=O)c2ccc3ccccc3n2)c2cc(OCCCO)ccc2N1C(=O)Cc1ccc(OC)cc1	Homeobox protein Hox-A13 (Mus musculus) (UniProt Q62424)	-1.86

Batch request: z-score for each of the following compounds.
1. CC(C)N1C(=O)C[C@@](C(=O)NCCN2CCOCC2)(c2ccc([N+](=O)[O-])cc2)[C@H]1c1ccc(CO)cc1
2. CCOc1cc(C(O)C2C=CC3C(=O)N(c4ccccc4)C(=O)C3N2Nc2ccccc2F)ccc1O (stereo unspecified)

[A]
1: -2.52; 2: -3.71

Give z-score for each of the items listed below.
1. O=C1O[C@H](c2ccccc2)[C@H](c2ccccc2)N2[C@H]1[C@@H](C(=O)O)[C@]1(C(=O)Nc3ccc(C#CCCO)cc31)[C@H]2c1ccc(OCCO)cc1
2. C=CCN1C(=O)[C@]2(O[C@H](CCn3cc([C@H](O)c4ccccc4)nn3)[C@@H]([Si](C)(C)c3ccc(OC)cc3)[C@@H]2C)c2cc(NC(=O)c3ccc(OC)cc3)ccc21

[A]
1. -5.39
2. -4.56

* * *

For each of the molecules below, state its composite z-score.
# Tested on: Sam68 (KHDRBS1)
# measurement_notes: compounds binding KHDRBS1 protein – biochemical, small-molecule microarray, 635 nm fluorescence, primary screen (AID 1125);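 also: score merges 667 nm channel intensity with signal to noise over triplicate slides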
# test_parameters: higher = more signal
Answers are plain numbers.

# example entries with known answers
molecule	measured_metric	value_measured
CCCC#C[Si](O[C@H](CC)c1cn(Cc2ccccc2)nn1)(C(C)C)C(C)C	composite z-score	0.793
Cc1ccc(C(C)CC(O)C2C=CC3C(=O)N(C)C(=O)C3N2Nc2ccccc2)o1 (stereo unspecified)	composite z-score	1.3
COc1ccc(C(=O)Nc2ccc(CN3C(=O)[C@@]4(O[C@@H](CCn5cc(CCO)nn5)[C@H]([Si](C)(C)c5ccc(OC)cc5)[C@H]4C)c4ccccc43)cc2)cc1	composite z-score	1.32
CCCCCCc1nc(Cc2cc(OC)c(OC)c(OC)c2)cc2c1[Si](C(C)C)(C(C)C)O[C@H]2c1ccccc1	composite z-score	0.523

Give composite z-score for each listed item.
1. CCCNC(=O)[C@@]1(c2ccc([N+](=O)[O-])cc2)CC(=O)N(C(C)C)[C@@H]1c1ccc(CO)cc1
2. CCCC[C@H]1C[C@@H]1[C@@H]1N(C(C)=O)[C@H](c2cccc(OC)c2)CC12CC2
3. CC(C)C(O)C1C=CC2C(=O)NC(=O)C2N1Nc1ccccn1 (stereo unspecified)
4. C[C@@H]1NC(=O)C([C@@H](C)OCc2ccccc2)NC(=O)[C@@]23C(=O)N[C@@H](Cc4ccccc4)C2[C@H](C)[C@@]2(C)O[C@H]2C3/C=C/C/C=C\CNC1=O (stereo partly specified)
5. Cc1ccc(S[C@]2(C(=O)NCC(F)(F)F)CC(=O)N(Cc3ccccc3C(F)(F)F)[C@@H]2c2ccc(CO)cc2)cc1
6. CCOC(=O)C[C@H]1[C@H](OC(=O)c2ccccc2-c2ccccc2)[C@@H](NC(=O)c2ccc3ccccc3c2)c2cc(OCCCO)ccc2N1C(=O)Cc1ccc(OC)cc1

[A]
[-0.626, -0.658, 0.472, -0.503, -0.556, -0.868]

Please look at the items below and tell me composite z-score for each one, in order.
1. CCCCCC1=C2CNC(Cc3ccccc3)(C(=O)OC)C=C2C(C)C1=O (stereo unspecified)
2. COC(=O)[C@@]1(Cc2ccc(OC)cc2)[C@H]2c3cc(C(=O)N(C)C)[nH]c3C[C@H]2CN1C(=O)c1ccccc1
3. CN1C(=O)C2C(C1=O)C1C=C(c3ccc(CO)cc3)C2C(C2CC2)N1C (stereo unspecified)
4. COCCOC(=O)N1C(=O)[C@@]2(c3cc(C#CCCO)ccc31)[C@H](c1ccccc1OCCO)N1[C@H](c3ccccc3)[C@H](c3ccccc3)OC(=O)[C@H]1[C@@H]2C(N)=O
5. COc1ccc(CCNC(=O)[C@@H]2c3ccccc3C(=O)N(Cc3ccccc3OC)[C@H]2c2ccc(CO)cc2)cc1
6. C=CCOC(=O)[C@H]1[C@@H]2C(=O)O[C@@H](c3ccccc3)[C@@H](c3ccccc3)N2[C@@H](c2ccc(OCCOC(=O)[C@@H]3C[C@@H]4C(=O)N[C@@H](CCCCNC(C)=O)C(=O)N4[C@@H]3c3cccc(OCCO)c3)cc2)[C@]12C(=O)Nc1ccccc12
7. CN(C)CCCC[C@@H]1NC(=O)[C@@H]2C[C@H](C(=O)NCCCCCN)[C@H](c3cccc(OCCO)c3)N2C1=O
8. CCCNC(=O)[C@@]1(Sc2ccc(C)cc2)CC(=O)N(Cc2ccccc2Cl)[C@@H]1c1ccc(CO)cc1I

[A]
[-0.49, -1.13, 0.164, 1.3, 1.28, 1.29, 1.33, -0.169]

Provide the reported composite z-score of each entry below, same order.
1. COC(=O)[C@@]1(Cc2ccc(OC)cc2)[C@H]2c3cc(C(=O)N4CCCC4)n(Cc4ccc(Cl)c(C(F)(F)F)c4)c3C[C@H]2CN1C(=O)c1ccccc1
2. CC=CC(O)C1C=CC2C(=O)NC(=O)C2N1Nc1ccc(Cl)cc1Cl (stereo unspecified)
3. CC(C)NC(=O)[C@@H]1c2ccccc2C(=O)N(Cc2ccccc2C(F)(F)F)[C@H]1c1ccc(CO)cc1
4. COCCOC(=O)N1C(=O)[C@@]2(c3cc(C#CCCO)ccc31)[C@H](C(N)=O)[C@H]1C(=O)O[C@H](c3ccccc3)[C@H](c3ccccc3)N1[C@@H]2c1ccccc1OCCO
5. COC(=O)[C@@]1(Cc2ccc(OC)cc2)[C@H]2c3cc(C(=O)N4CCCC4)n(Cc4ccc(C(F)(F)F)nc4)c3C[C@H]2CN1C(=O)c1ccccc1
6. COCCOC(=O)N1C(=O)[C@@]2(c3cc(C#CCC(C(=O)OC)C(=O)OC)ccc31)[C@H](C(=O)Nc1nc3ccccc3s1)[C@H]1C(=O)O[C@H](c3ccccc3)[C@H](c3ccccc3)N1[C@@H]2c1ccc(O)cc1
7. CC(C)C(CO)N1C(=O)[C@@H]2C3C(=O)OCCC/C=C\[C@H]3OC23C=CCN(Cc2ccccc2)C(=O)[C@@H]13 (stereo partly specified)

[A]
[1.29, -0.227, -0.0631, 1.3, 0.524, 1.3, -0.173]

// COCCOC(=O)N1C(=O)[C@@]2(c3cc(C#CCC(C(=O)OC)C(=O)OC)ccc31)[C@H](c1ccc(O)cc1)N1[C@H](c3ccccc3)[C@H](c3ccccc3)OC(=O)[C@H]1[C@@H]2C(=O)Nc1nc2ccccc2s1 : composite z-score value = 1.3
